Molecular target: T1, Anti-PSMA Fab (SEQ ID NOs: 19, 20)
T1 construct: In the phage ELISA the PSMA Fab was biotinylated and captured on neutravidin coated plates; also called 006 PSMA Fab
Assay: phage binding ELISA; biotinylated PSMA Fab on neutravidin plate, clonal phage supernatant, anti-M13 HRP detection;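 also: wells were preincubated with blocking buffer either containing PSMA antigen or without it before crude phage supernatant was added, briefly incubated, then washed prior to detection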
Where no end group is shown, it is not given here.
OUTCOME_MEASURE: Anti-PSMA Fab (SEQ ID NOs: 19, 20) signal
Output: the number by itself.

For the binder ESKWCTPPWMCMTD (Tested as clonal phage supernatant; not shown: pIII filament protein of the bacteriophage to which the peptide is fused for display) [Phage-2085 (peptide-180 library clone, SEQ ID NO: 2401)] , give its reported Anti-PSMA Fab (SEQ ID NOs: 19, 20) signal.
1.75

For the binder PEKLCIPDWMCHWD (Tested as clonal phage supernatant; not shown: pIII filament protein of the bacteriophage to which the peptide is fused for display) [Phage-2082 (peptide-180 library clone, SEQ ID NO: 2398)] , give its reported Anti-PSMA Fab (SEQ ID NOs: 19, 20) signal.
1.75

For the binder DWRLCIPEWMCERL (Tested as clonal phage supernatant; not shown: pIII filament protein of the bacteriophage to which the peptide is fused for display) [Phage-2079 (peptide-180 library clone, SEQ ID NO: 2395)] , give its reported Anti-PSMA Fab (SEQ ID NOs: 19, 20) signal.
1.75

For the binder WSNWCTPRWVCKTI (Tested as clonal phage supernatant; not shown: pIII filament protein of the bacteriophage to which the peptide is fused for display) [Phage-2083 (peptide-180 library clone, SEQ ID NO: 2399)] , give its reported Anti-PSMA Fab (SEQ ID NOs: 19, 20) signal.
1.75

For the binder SEHWCVPSWMCYGF (Tested as clonal phage supernatant; not shown: pIII filament protein of the bacteriophage to which the peptide is fused for display) [Phage-2084 (peptide-180 library clone, SEQ ID NO: 2400)] , give its reported Anti-PSMA Fab (SEQ ID NOs: 19, 20) signal.
1.75

For the binder QVNWCIPPWMCAGL (cysteine pairing not given here; also: fused to phage pIII, pIII sequence and linker not given here, Tested as clonal phage supernatant; not shown: pIII filament protein of the bacteriophage to which the peptide is fused for display) [Phage-2081 (peptide-180 library clone, SEQ ID NO: 2397)] , give its reported Anti-PSMA Fab (SEQ ID NOs: 19, 20) signal.
1.75

For the binder ADKWCTPTWMCQWL (Tested as clonal phage supernatant; not shown: pIII filament protein of the bacteriophage to which the peptide is fused for display) [Phage-2075 (peptide-180 library clone, SEQ ID NO: 2391)] , give its reported Anti-PSMA Fab (SEQ ID NOs: 19, 20) signal.
1.76

For the binder AEKLCIPPWMCMLS (Tested as clonal phage supernatant; not shown: pIII filament protein of the bacteriophage to which the peptide is fused for display) [Phage-2077 (peptide-180 library clone, SEQ ID NO: 2393)] , give its reported Anti-PSMA Fab (SEQ ID NOs: 19, 20) signal.
1.76

For the binder VHQMCQPWWMCWET (Tested as clonal phage supernatant; not shown: pIII filament protein of the bacteriophage to which the peptide is fused for display) [Phage-2086 (peptide-180 library clone, SEQ ID NO: 2402)] , give its reported Anti-PSMA Fab (SEQ ID NOs: 19, 20) signal.
1.75

For the binder WDNWCTPLWMCQGF (Tested as clonal phage supernatant; not shown: pIII filament protein of the bacteriophage to which the peptide is fused for display) [Phage-2080 (peptide-180 library clone, SEQ ID NO: 2396)] , give its reported Anti-PSMA Fab (SEQ ID NOs: 19, 20) signal.
1.75

For the binder QGNWCKPAWMCSGF (cysteine pairing not given here; also: fused to phage pIII, pIII sequence and linker not given here, Tested as clonal phage supernatant; not shown: pIII filament protein of the bacteriophage to which the peptide is fused for display) [Phage-2072 (peptide-180 library clone, SEQ ID NO: 2388)] , give its reported Anti-PSMA Fab (SEQ ID NOs: 19, 20) signal.
1.76

For the binder VAKMCIPSWMCAEQ (cysteine pairing not given here; also: fused to phage pIII, pIII sequence and linker not given here, Tested as clonal phage supernatant; not shown: pIII filament protein of the bacteriophage to which the peptide is fused for display) [Phage-2073 (peptide-180 library clone, SEQ ID NO: 2389)] , give its reported Anti-PSMA Fab (SEQ ID NOs: 19, 20) signal.
1.76

For the binder IEKWCIPEWMCEYT (Tested as clonal phage supernatant; not shown: pIII filament protein of the bacteriophage to which the peptide is fused for display) [Phage-2078 (peptide-180 library clone, SEQ ID NO: 2394)] , give its reported Anti-PSMA Fab (SEQ ID NOs: 19, 20) signal.
1.75

For the binder ADKWCIPEWMCEMN (Tested as clonal phage supernatant; not shown: pIII filament protein of the bacteriophage to which the peptide is fused for display) [Phage-2076 (peptide-180 library clone, SEQ ID NO: 2392)] , give its reported Anti-PSMA Fab (SEQ ID NOs: 19, 20) signal.
1.76

For the binder VGNWCKPAWMCEMM (Tested as clonal phage supernatant; not shown: pIII filament protein of the bacteriophage to which the peptide is fused for display) [Phage-2074 (peptide-180 library clone, SEQ ID NO: 2390)] , give its reported Anti-PSMA Fab (SEQ ID NOs: 19, 20) signal.
1.76
